Target: Fyn (UniProt P06241)
Sequence (P06241 whole entry, looked up): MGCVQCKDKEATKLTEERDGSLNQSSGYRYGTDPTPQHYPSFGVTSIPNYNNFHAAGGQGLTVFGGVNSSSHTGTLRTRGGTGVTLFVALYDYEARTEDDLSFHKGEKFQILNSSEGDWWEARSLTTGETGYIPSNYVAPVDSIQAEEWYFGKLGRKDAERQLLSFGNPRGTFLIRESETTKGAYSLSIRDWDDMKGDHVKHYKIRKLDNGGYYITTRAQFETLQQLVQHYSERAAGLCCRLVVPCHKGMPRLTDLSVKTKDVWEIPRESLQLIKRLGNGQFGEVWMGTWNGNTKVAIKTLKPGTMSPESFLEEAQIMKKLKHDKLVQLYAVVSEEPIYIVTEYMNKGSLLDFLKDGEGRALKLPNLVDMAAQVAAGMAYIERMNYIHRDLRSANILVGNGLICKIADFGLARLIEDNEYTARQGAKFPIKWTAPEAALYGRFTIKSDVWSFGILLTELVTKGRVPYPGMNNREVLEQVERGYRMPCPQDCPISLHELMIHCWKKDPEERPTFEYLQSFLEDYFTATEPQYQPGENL
Assay: phosphorylation enrichment, bacterial display (enrichment ratio); higher = better substrate or ligand; peptides without Tyr show the background
Decision: phosphorylation enrichment >= 0.5 yields criterion met, all other cases yield criterion not met.

Answered examples (5):
[
  {
    "QUERY SEQUENCE": "FSIDHYLGKEM [G6PD_Y202_R198S_YF]",
    "SYSTEM": "Fyn (UniProt P06241)",
    "ANSWER LABEL": "criterion met"
  },
  {
    "QUERY SEQUENCE": "WPQKLYNNFVN [MYO5C_Y526_L522P]",
    "SYSTEM": "Fyn (UniProt P06241)",
    "ANSWER LABEL": "criterion not met"
  },
  {
    "QUERY SEQUENCE": "ALAHKHHGGGG [HBB_Y146_Y146H]",
    "SYSTEM": "Fyn (UniProt P06241)",
    "ANSWER LABEL": "criterion not met"
  },
  {
    "QUERY SEQUENCE": "NQILPYIKELV [PPP2R1B_Y341]",
    "SYSTEM": "Fyn (UniProt P06241)",
    "ANSWER LABEL": "criterion not met"
  },
  {
    "QUERY SEQUENCE": "FHIDHYLGKEM [G6PD_Y202_R198H_YF]",
    "SYSTEM": "Fyn (UniProt P06241)",
    "ANSWER LABEL": "criterion not met"
  }
]

API: above_or_equal(metric=phosphorylation enrichment, cutoff=0.5) for item WIPIQYLIISE [NOG_Y222_P223L]
criterion not met

API: above_or_equal(metric=phosphorylation enrichment, cutoff=0.5) for item HYGNNYTDVLQ [MACC1_Y803_R804T]
criterion met

API: above_or_equal(metric=phosphorylation enrichment, cutoff=0.5) for item LGKGSYAKVRS [TSSK2_Y23_K27R]
criterion met

API: above_or_equal(metric=phosphorylation enrichment, cutoff=0.5) for item HQNGMYGLHQD [SGSH_Y89]
criterion met

API: above_or_equal(metric=phosphorylation enrichment, cutoff=0.5) for item FQRITYHNWRH [PDE6B_Y556_R552Q_YF]
criterion not met

API: above_or_equal(metric=phosphorylation enrichment, cutoff=0.5) for item MSRDVYSIDYY [NTRK2_Y702_T704I]
criterion met

API: above_or_equal(metric=phosphorylation enrichment, cutoff=0.5) for item EEKKKYFDAKI [CASP5_Y103_T106A_YF]
criterion not met

---

System: Fer (mouse)
Assay: phosphorylation enrichment, bacterial display (enrichment ratio); higher = better substrate or ligand; peptides without Tyr show the background
PARAMETER MEASURED: phosphorylation enrichment

Some entries whose results are on file:
[
  {
    "QUERY SEQUENCE": "KSPDSYQKILL [ATM_Y1415]",
    "phosphorylation enrichment": 0.393
  },
  {
    "QUERY SEQUENCE": "DLFRLYICVKE [ARID1B_Y1091_V1092I]",
    "phosphorylation enrichment": 0.591
  },
  {
    "QUERY SEQUENCE": "SQKRKYIEIDS [SDAD1_Y580]",
    "phosphorylation enrichment": 0.394
  }
]

Look up and report phosphorylation enrichment, with Fer (mouse) as system, for KPEKTYGLRKE [CEP43_Y267]
0.395

---

The following sequences are listed with their measured SH2 binding enrichment values.
Biological target: SHP2-C SH2
Assay: SH2 binding enrichment of the phosphorylated peptide, bacterial display (enrichment ratio); higher = better substrate or ligand; peptides without Tyr show the background
Write the value as a bare number.

Some entries whose results are on file:
[
  {
    "QUERY SEQUENCE": "ELTSKYRGGGG [HBA1_Y141_V136E]",
    "SH2 binding enrichment": 0.725
  },
  {
    "QUERY SEQUENCE": "SIKDKYLTALY [KCNH2_Y611_V612L]",
    "SH2 binding enrichment": 0.634
  }
]

Identify SH2 binding enrichment associated with the sequence NDKLCYEVSSP [CDH13_Y66_R65C]
0.498

Identify SH2 binding enrichment associated with the sequence GRQGIYTKNER [GPR143_Y231_E233K]
0.802

Identify SH2 binding enrichment associated with the sequence VKKKLDEEIDQ [CYP17A1_Y329_Y329D]
0.853

Identify SH2 binding enrichment associated with the sequence SSLMKYQQNVS [EGFEM1P_Y160_P157L]
0.723

Identify SH2 binding enrichment associated with the sequence HSLRDYKEALM [ADA2_Y337_H335R]
0.699

Identify SH2 binding enrichment associated with the sequence EMFNPYYGLFE [NEDD4L_Y679]
0.855

Identify SH2 binding enrichment associated with the sequence DRLASYPEKVR [KRT13_Y118_L119P]
0.636

---

Target: MERTK (UniProt Q12866)
Sequence (Q12866 whole entry, looked up): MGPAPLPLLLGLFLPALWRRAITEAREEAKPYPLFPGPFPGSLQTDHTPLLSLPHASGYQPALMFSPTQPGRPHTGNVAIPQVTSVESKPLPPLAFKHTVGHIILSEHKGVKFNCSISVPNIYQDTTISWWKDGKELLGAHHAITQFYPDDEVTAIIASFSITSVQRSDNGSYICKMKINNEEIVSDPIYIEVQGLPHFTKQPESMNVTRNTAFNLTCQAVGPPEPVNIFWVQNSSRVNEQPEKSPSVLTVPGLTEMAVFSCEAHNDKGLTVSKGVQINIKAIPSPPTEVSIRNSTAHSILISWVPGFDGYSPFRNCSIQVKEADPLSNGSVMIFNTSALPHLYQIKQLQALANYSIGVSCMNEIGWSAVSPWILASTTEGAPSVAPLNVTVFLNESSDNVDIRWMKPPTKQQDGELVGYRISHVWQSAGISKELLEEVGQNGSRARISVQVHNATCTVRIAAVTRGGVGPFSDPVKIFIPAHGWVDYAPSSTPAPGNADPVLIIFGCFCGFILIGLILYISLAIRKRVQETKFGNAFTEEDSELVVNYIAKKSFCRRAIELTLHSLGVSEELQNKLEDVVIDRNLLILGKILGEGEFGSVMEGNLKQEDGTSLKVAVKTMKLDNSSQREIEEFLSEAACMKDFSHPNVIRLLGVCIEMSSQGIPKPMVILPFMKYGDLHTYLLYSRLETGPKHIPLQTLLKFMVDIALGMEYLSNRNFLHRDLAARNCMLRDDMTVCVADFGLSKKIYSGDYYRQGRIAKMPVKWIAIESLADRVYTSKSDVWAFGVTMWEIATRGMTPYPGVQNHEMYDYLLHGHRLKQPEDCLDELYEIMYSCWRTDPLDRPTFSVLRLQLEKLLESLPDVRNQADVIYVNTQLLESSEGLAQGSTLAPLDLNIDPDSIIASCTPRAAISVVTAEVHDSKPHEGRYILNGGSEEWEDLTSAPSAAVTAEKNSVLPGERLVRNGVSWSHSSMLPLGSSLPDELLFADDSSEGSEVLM
Test: phosphorylation enrichment, bacterial display (enrichment ratio); higher = better substrate or ligand; peptides without Tyr show the background
The following sequences are listed with their measured phosphorylation enrichment values.

Some entries whose results are on file:
[
  {
    "QUERY SEQUENCE": "IGCHAYGDQFR [IDH1_Y135_R132C_YF]",
    "phosphorylation enrichment": 0.497
  },
  {
    "QUERY SEQUENCE": "SQSPHYFRSGR [GPATCH8_Y1038]",
    "phosphorylation enrichment": 0.502
  },
  {
    "QUERY SEQUENCE": "NQILPYIKELV [PPP2R1B_Y341]",
    "phosphorylation enrichment": 0.456
  },
  {
    "QUERY SEQUENCE": "CNRADYSKLAP [GNE_Y22]",
    "phosphorylation enrichment": 0.609
  },
  {
    "QUERY SEQUENCE": "TRDVNYGWIIR [MT-CYB_Y75]",
    "phosphorylation enrichment": 0.756
  },
  {
    "QUERY SEQUENCE": "KLPFLYDDPFS [GPX2_Y127_P126L_YF]",
    "phosphorylation enrichment": 2.66
  },
  {
    "QUERY SEQUENCE": "RFLRGYQQDAF [HLA-A_Y137_R138Q_YF]",
    "phosphorylation enrichment": 0.558
  },
  {
    "QUERY SEQUENCE": "IVRSLYEDVED [VHL_Y185_L188V]",
    "phosphorylation enrichment": 0.458
  }
]

Look up and report phosphorylation enrichment, with MERTK (UniProt Q12866) as system, for QGCGIYKDYYR [PLA2G2D_Y82_S80G]
0.773

Look up and report phosphorylation enrichment, with MERTK (UniProt Q12866) as system, for LNTFHYAGVSA [POLR2A_Y1109]
0.449

Look up and report phosphorylation enrichment, with MERTK (UniProt Q12866) as system, for GEIQEYGAPLD [ABCC1_Y1508_S1512L]
0.467

Look up and report phosphorylation enrichment, with MERTK (UniProt Q12866) as system, for VAFLFYKSIGP [ADGRL4_Y302_V300L_YF]
0.523

Look up and report phosphorylation enrichment, with MERTK (UniProt Q12866) as system, for LEHCQYVTEKV [ALDOB_Y204]
1.04

---

Molecular target: FGFR3 (UniProt P22607)
Sequence (P22607 whole entry, looked up): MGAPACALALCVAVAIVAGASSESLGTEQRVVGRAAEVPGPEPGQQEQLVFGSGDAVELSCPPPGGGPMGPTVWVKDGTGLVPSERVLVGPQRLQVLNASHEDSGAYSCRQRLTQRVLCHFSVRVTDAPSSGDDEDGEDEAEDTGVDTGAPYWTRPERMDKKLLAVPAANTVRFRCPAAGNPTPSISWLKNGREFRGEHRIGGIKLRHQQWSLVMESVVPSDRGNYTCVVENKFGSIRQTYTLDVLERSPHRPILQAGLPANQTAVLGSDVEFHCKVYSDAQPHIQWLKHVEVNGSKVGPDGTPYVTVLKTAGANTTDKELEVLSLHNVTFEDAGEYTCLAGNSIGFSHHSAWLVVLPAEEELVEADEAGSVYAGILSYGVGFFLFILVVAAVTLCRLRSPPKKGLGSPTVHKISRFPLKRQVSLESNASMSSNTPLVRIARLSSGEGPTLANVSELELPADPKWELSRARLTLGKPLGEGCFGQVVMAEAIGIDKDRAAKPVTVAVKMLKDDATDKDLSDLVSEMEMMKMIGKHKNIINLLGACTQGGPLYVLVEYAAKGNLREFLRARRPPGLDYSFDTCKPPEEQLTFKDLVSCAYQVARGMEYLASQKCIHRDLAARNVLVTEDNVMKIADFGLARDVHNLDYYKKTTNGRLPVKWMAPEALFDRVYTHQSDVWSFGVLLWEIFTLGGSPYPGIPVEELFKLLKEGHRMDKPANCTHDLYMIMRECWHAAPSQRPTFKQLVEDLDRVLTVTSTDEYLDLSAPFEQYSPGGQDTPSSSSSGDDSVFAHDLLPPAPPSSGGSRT
Experiment: phosphorylation enrichment, bacterial display (enrichment ratio); higher = better substrate or ligand; peptides without Tyr show the background
Decision: phosphorylation enrichment >= 0.5 yields TRUE, all other cases yield FALSE.

Answered examples (5):
[
  {
    "QUERY SEQUENCE": "ARSMEYLAEQK [MST1R_Y1198]",
    "ANSWER LABEL": "TRUE"
  },
  {
    "QUERY SEQUENCE": "EVEPRYVVLYD [ERCC4_Y577]",
    "ANSWER LABEL": "TRUE"
  },
  {
    "QUERY SEQUENCE": "SLLTDYSPQLQ [OTC_Y345]",
    "ANSWER LABEL": "TRUE"
  },
  {
    "QUERY SEQUENCE": "GKMSQYLESMQ [CYB5R3_Y130]",
    "ANSWER LABEL": "FALSE"
  },
  {
    "QUERY SEQUENCE": "GDEEDYEEIPG [EGFR_opt_E_2015]",
    "ANSWER LABEL": "TRUE"
  }
]

Attention now turns to another entry.
API: above_or_equal(metric=phosphorylation enrichment, cutoff=0.5) for item RLAKTYKTTLE [ALB_Y377_E378K]
FALSE

---

Molecular target: c-Src SH2
Experiment: SH2 binding enrichment of the phosphorylated peptide, bacterial display (enrichment ratio); higher = better substrate or ligand; peptides without Tyr show the background
The following sequences are listed with their measured SH2 binding enrichment values.
Write the value as a bare number.

Some entries whose results are on file:
[
  {
    "QUERY SEQUENCE": "YGAHNHHPLPV [OAT_Y55_Y55H]",
    "MEASURED RESULT": 0.919
  },
  {
    "QUERY SEQUENCE": "KRLAVYQAGAR [APOE_Y180]",
    "MEASURED RESULT": 0.879
  },
  {
    "QUERY SEQUENCE": "RFLERDIYNRE [HLA-DPB1_Y57_Y57D]",
    "MEASURED RESULT": 0.877
  },
  {
    "QUERY SEQUENCE": "DRLTVYIDRVR [LMNA_Y45_A43T]",
    "MEASURED RESULT": 0.636
  },
  {
    "QUERY SEQUENCE": "ISKKHYAGLLF [POLD1_Y809_R808H]",
    "MEASURED RESULT": 2.04
  },
  {
    "QUERY SEQUENCE": "IDDNEYAYLKA [HNF4A_Y286]",
    "MEASURED RESULT": 0.467
  },
  {
    "QUERY SEQUENCE": "NRDNTYNPVSE [FGA_Y127_R129P]",
    "MEASURED RESULT": 0.425
  },
  {
    "QUERY SEQUENCE": "RLGDLYEEEMR [VIM_Y150]",
    "MEASURED RESULT": 0.848
  }
]

Identify SH2 binding enrichment associated with the sequence VSNFNYFFHRE [KCNA1_Y413_YF]
0.79
